B1: HDV Ribozyme (parent)
chain: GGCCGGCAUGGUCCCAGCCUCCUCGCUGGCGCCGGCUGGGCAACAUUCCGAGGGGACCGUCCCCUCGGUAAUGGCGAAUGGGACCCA

variants of: B1; assay: self-cleavage, relative activity (ratio to wild type); higher = more cleavage; co-transcriptional
I would appreciate it if you labelled entries 1 when self-cleavage is 0.2 or higher, otherwise -1.

Query: # check: self-cleavage of GGCCGGCAUGGUCCCAGCCUCCUCGCUGCCGCGGGCUGGGCAACAUUCCGAGGGGACCGUCCCCUCGGUAAUGGCGAAUGGGACCCA [G29C C33G] is greater than or equal to 0.2
Result: -1

Query: Quick check: does GGCCGGCAUGGUCCCAGCCUCCUCGCUGGCGCCGGCUGGGCAACAUUCCGAGGGGACCGUCCCCUCGGUAAUGGCCAAUGGAACCCA [G76C G82A] have self-cleavage greater than or equal to 0.2?
Result: 1

Query: Does self-cleavage meet or surpass 0.2 for GGCCGGCAUGGUCCCAGCCUCCUCGCUGGCGCCGGCUGGGCAACAUUCCGAGGGGACGGUCCCCUCGGUAAAGGCGAAUGGGACCCA [C58G U72A] ?
Result: 1

Query: Does GGCCGGCAUGGUCCCAGCCUCCUCGCUGGCGCCGGCUGGGCAACAUUCCGAGGUGACCGUCCCCUUGGUAAUGGCGAAUGGGACCCA [G54U C66U] have a reported self-cleavage of at least 0.2?
Result: 1

Query: Exam item: decide whether the reported self-cleavage for GGCCGGCAUGGUCCCAGCCUCCUCGCUGGCGCUGGCUGGGGAACAUUCCGAGGGGACCGUCCCCUCGGUAAUGGCGAAUGGGACCCA [C33U C41G] is at least 0.2.
Result: 1

Query: Reported self-cleavage at or above 0.2? GGCCGGCAUGGUCCCAGCCUGCUCGCUGGCGCCGGAUGGGCAACAUUCCGAGGGGACCGUCCCCUCGGUAAUGGCGAAUGGGACCCA [C21G C36A]
Result: -1

Query: Check this variant for self-cleavage at or above 0.2: GGCCUGCAUGGUCCCAGCCUCCUCGCUGGCGCCGGCUGGGCAACAUUCCGAGGGGACCGUCCCCUCGGUAAUGGCGAAUGGGACGCA [G5U C85G]
Result: 1

Query: Does self-cleavage meet or surpass 0.2 for GGCCGGCAUGGUCCCAGCCUCCUCGCUGGCGGCGGCUUGGCAACAUUCCGAGGGGACCGUCCCCUCGGUAAUGGCGAAUGGGACCCA [C32G G38U] ?
Result: -1

Query: Does the reported self-cleavage for GGCCGGCAUGGUCCCAGUCUCCUCGCUGGCGUCGGCUGGGCAACAUUCCGAGGGGACCGUCCCCUCGGUAAUGGCGAAUGGGACCCA [C18U C32U] fall at or above the 0.2 mark?
Result: 1

Query: // inclusive: self-cleavage at least 0.2? input: GGCCGGCAUGGUCUCAGCCUCCUCGCUGGCGCCGGCUGGGCAACAUUCCGAGGGGACCGUCCCCUCGGUAAUGGCGAAUGGGACUCA [C14U C85U]
Result: 1

Query: Would you say GGCCGGCAUGGUCCCAGCCUCCUCGCUGGCGCCGGCUGGGCAACGUUCCGAGGGGACCGUCCGCUCGGUAAUGGCGAAUGGGACCCA [A45G C63G] shows self-cleavage at minimum 0.2?
Result: 1

Query: Determine whether measured self-cleavage meets or exceeds 0.2 for GGCCGGCAUGGUCCCAGCCUCCUCGCUGGCGCCGGCUGGGCAACAUUCCGAGGGGAUCGUCCCCUAGGUAAUGGCGAAUGGGACCCA [C57U C66A]
Result: 1

Query: State whether the measured self-cleavage reaches 0.2, counting equality as reaching it, for GGCCGGCAUGGUCCCAGCCGCCUCGCUGGCGCCGGCUGGGCAACAUUCCGAGGGGACCGUCCCCUCGGUAAUGGCGAAUGGCACCCA [U20G G82C]
Result: 1

Query: Hi team, for GGCCGGAAUGGUCCCAGCCUCCUCGCUGGCGCCGGCUGGGCAUCAUUCCGAGGGGACCGUCCCCUCGGUAAUGGCGAAUGGGACCCA [C7A A43U] , is the recorded self-cleavage at or above 0.2?
Result: -1

Query: Given GGCCGGCAUGGUCCCAGCCUCCUCGCUGGCGCCGGCUGGGCAACAUUUCGAGGGGACCAUCCCCUCGGUAAUGGCGAAUGGGACCCA [C48U G59A] , state whether its self-cleavage is at least 0.2.
Result: 1

Query: Test whether the variant GGCCGGCAUGGUCCCAGCCUCCUCGCUGGCUCCGGCUGGGCAACAUUCCGAGGGGACCGUCCCCUCGGUACUGGCGAAUGGGACCCA [G31U A71C] records self-cleavage of 0.2 or higher.
Result: -1

Query: Reported self-cleavage at or above 0.2? GGCCGGCAUGGUCCCAGCCUCCUCGCUGGCGCCGGCUGGGCAACAUUUCGAGGGGACCGUCCCCUCGGUAAUGGCGAAUGGGACCUA [C48U C86U]
Result: 1

Query: Given the entry GGCCGGCAUGGUCCCAGCCUCCUCGCUGGCGCCGGCUGGGCAACAUUCCGAGGGGACCGUCCGCUCGGGAAUGGCGAAUGGGACCCA [C63G U69G] , answer whether its self-cleavage meets or surpasses 0.2.
Result: 1

Query: Tell me whether self-cleavage is at least 0.2 here: GGCCGGCAUGGUCCCAGCCUCCUCGCUGGUGCCGACUGGGCAACAUUCCGAGGGGACCGUCCCCUCGGUAAUGGCGAAUGGGACCCA [C30U G35A]
Result: -1

Query: Confirm if self-cleavage reported for the variant GGCCGGCAUGGUCCCAGCCUCCUCGCUUGCGCCGGCUGGGCAACAUUCCGAGGGGACCGUCCCCUCGGUAAUGGCGGAUGGGACCCA [G28U A77G] is 0.2 or above.
Result: -1

Query: Form field: self-cleavage at least 0.2? Entry: GGCCGGCAUGGUCCCAGCCUCCUCGCUGGCGCCGGCUGGGCAACAUUCCGAGGGGACCGUCCCCUUGGUGAUGGCGAAUGGGACCCA [C66U A70G]
Result: 1
